molecular target: UniProt:P35408; assay: EP4 cAMP assay, HEK293-EBNA cells transfected with pCEP4-hEP4 receptors; settings: total cAMP, 1 hour
Sequence (P35408 whole entry): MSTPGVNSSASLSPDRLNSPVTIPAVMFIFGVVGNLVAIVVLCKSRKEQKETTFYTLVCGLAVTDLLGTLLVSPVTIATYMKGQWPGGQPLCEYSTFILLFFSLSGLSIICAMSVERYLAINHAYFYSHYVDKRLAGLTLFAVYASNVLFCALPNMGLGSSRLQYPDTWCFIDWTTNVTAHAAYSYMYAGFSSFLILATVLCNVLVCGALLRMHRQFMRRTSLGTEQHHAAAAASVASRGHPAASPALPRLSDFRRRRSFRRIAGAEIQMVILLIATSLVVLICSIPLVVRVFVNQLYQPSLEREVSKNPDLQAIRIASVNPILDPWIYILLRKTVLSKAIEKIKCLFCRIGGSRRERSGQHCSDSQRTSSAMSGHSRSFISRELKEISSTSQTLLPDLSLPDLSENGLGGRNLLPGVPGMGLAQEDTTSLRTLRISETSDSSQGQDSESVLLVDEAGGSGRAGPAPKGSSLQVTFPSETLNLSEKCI
Measure name: pEC50
Note on pEC50: it is the negative log10 of concentration, concentration in mol/L.

Would you please look over these solved cases?
CCCC/C(C)=C/C=C\[C@H]1CCC(=O)N1CCCc1ccc(C(=O)O)s1 (single isomer, unassigned) | 8.70
CC/C=C/C=C\[C@H]1CCC(=O)N1CCc1ccc(C(=O)O)cc1 | 8.70
CCCC/C=C(C)/C=C/[C@H]1CCC(=O)N1CCc1ccc(C(=O)O)cc1 | 7.68
CCCC/C=C/C=C\[C@H]1CCC(=O)N1CCc1ccc(C(=O)O)cc1 | 7.70

--- query ---
Specify measured pEC50 for `CC(C)=CCC/C(C)=C/C=C\[C@H]1CCC(=O)N1CCc1ccc(C(=O)O)cc1` .
8.70
